For each entry below, report its MIC value.
# Tested on: E. coli ATCC25922
# PROTOCOL_TEXT: MIC susceptibility testing, broth microdilution in CaMHB
# Assay type: cell-based, Escherichia coli
# EXPERIMENTAL_SETUP: Table 4A, different batches of cation-adjusted Muller-Hinton broth
Structures can show the parent of a compound that is named as a salt. Where a SMILES comes first, the peptide text is derived from it. Bridges are numbered along the chain shown (N, C = ends). [ ]: non-standard residue; d: D form. The star is where a group is joined. ξ: configuration not given here. ξβ3hGly(cHex) = NC(CC(=O)*)C1CCCCC1; Thr(3ξ) = CC(O)[C@H](N)C(=O)O; X10 = O=C(CC[C@@H]1CCCN1)*; Dab = NCC[C@H](N)C(=O)O
Numbers only here, please. The scale is micrograms/mL.

# input compound: CC(C)C[C@@H]1NC(=O)[C@@H](Cc2ccccc2)NC(=O)[C@H](CCN)NC(=O)[C@@H](NC(=O)[C@H](CCN)NC(=O)[C@@H](NC(=O)CC(N)C2CCCCC2)C(C)O)CCNC(=O)[C@H](C(C)O)NC(=O)[C@H](CCN)NC(=O)[C@H](CCN)NC1=O (stereo partly drawn) [Example 14, Sulphate Salt] ({ξβ3hGly(cHex)}-[Thr(3ξ)][Dab][Dab][Dab][dF]L[Dab][Dab][Thr(3ξ)]; lactam 3-C) ; wanted: its MIC
2

For CC(C)C[C@@H]1NC(=O)[C@@H](Cc2ccccc2)NC(=O)[C@H](CCN)NC(=O)[C@@H](NC(=O)[C@H](CCN)NC(=O)[C@@H](NC(=O)CC[C@@H]2CCCN2)C(C)O)CCNC(=O)[C@H](C(C)O)NC(=O)[C@H](CCN)NC(=O)[C@H](CCN)NC1=O (stereo partly drawn) [Example 30] (X10-[Thr(3ξ)][Dab][Dab][Dab][dF]L[Dab][Dab][Thr(3ξ)]; lactam 3-C) , what is its reported MIC?
16

====

# Tested on: K. pneumoniae NCTC7427
# PROTOCOL_TEXT: MIC susceptibility testing, broth microdilution in CaMHB
# Format: cell-based, Klebsiella pneumoniae
# EXPERIMENTAL_SETUP: Table 4A, different batches of cation-adjusted Muller-Hinton broth
Counter-ions that a name gives are not always drawn. Where a SMILES comes first, the peptide text is derived from it. Bridges are numbered along the chain shown (N, C = ends). [ ]: non-standard residue; d: D form. The star is where a group is joined. ξ: configuration not given here. ξβ3hGly(cHex) = NC(CC(=O)*)C1CCCCC1; Thr(3ξ) = CC(O)[C@H](N)C(=O)O; Dab = NCC[C@H](N)C(=O)O; GABA = NCCCC(=O)O
ASSAY_ENDPOINT: MIC
Answer with the figure and its unit, nothing else.

Which MIC value is on record for CC(C)C[C@@H]1NC(=O)[C@@H](Cc2ccccc2)NC(=O)[C@H](CCN)NC(=O)[C@@H](NC(=O)[C@H](CCN)NC(=O)[C@@H](NC(=O)CC(N)C2CCCCC2)C(C)O)CCNC(=O)[C@H](C(C)O)NC(=O)[C@H](CCN)NC(=O)[C@H](CCN)NC1=O (stereo partly drawn) [Example 14, Sulphate Salt] ({ξβ3hGly(cHex)}-[Thr(3ξ)][Dab][Dab][Dab][dF]L[Dab][Dab][Thr(3ξ)]; lactam 3-C) ?
0.5 micrograms/mL

// returns reported MIC for input CC(C)C[C@@H]1NC(=O)[C@@H](Cc2ccccc2)NC(=O)[C@H](CCN)NC(=O)[C@@H](NC(=O)[C@H](CCN)NC(=O)[C@@H](NC(=O)CCCN)[C@@H](C)O)CCNC(=O)[C@H]([C@@H](C)O)NC(=O)[C@H](CCN)NC(=O)[C@H](CCN)NC1=O [Example 6, Sulphate Salt] (H-[GABA]T[Dab][Dab][Dab][dF]L[Dab][Dab]T; lactam 4-C)
0.125 micrograms/mL
